test system: M14 melanoma; assay: NCI-60 one-dose screen, 48 h (100 = growth as untreated, 0 = no growth, -100 = all killed); details: 10 µM unless noted
About 83,000 compounds went through this panel and 20% of them were active in at least one assay; those are over-represented in the sample as a whole.
Please provide measured growth for the entries that follow.
Note: unit % is implicit; provide only the numeric part.

Which value of growth has been reported for O=C1C(Cl)=C(Nc2ccccn2)C(=O)c2ccccc21 in the records? 89.5

Entry under review: CCOC(=O)c1cc(C(=O)c2cc(OC)c(OC)c(OC)c2)n2c1ccc1ccccc12 . Reported growth? 10.7

Give the measured growth of COc1ccc(S(=O)(=O)NCCCNc2nccc(-n3ccc4cccnc43)n2)cc1 . -14.4

Which growth value belongs to COc1cc(Nc2nc(N[C@H]3CCCC[C@@H]3N)nc3cc[nH]c(=O)c23)cc(OC)c1 ? 40.2

What does the data say about its growth? Entry: COc1cc(NC(N)=NCCC(C)(C)c2ccc(C(F)(F)F)cc2)ncc1C#N -73.7

Looking for the measured growth of CCCCCCCCN(CCCCCCCC)CCCCCCNc1cc(OC)cc2cccnc12 , can you help? -1.6

Param item = Oc1ccc(Cl)cc1-c1cc(-c2ccc(F)cc2)n[nH]1 ; retrieve measured growth. 76.6

Param item = COc1cc2c(c(OC)c1OC)-c1ccc(N)c(=O)cc1[C@@H](NC(C)=O)CC2 ; retrieve measured growth. -21.8

Reported growth for COc1cc(-c2nc(-c3nc4ccc(Cl)cc4[nH]3)cc3c2[nH]c2ccccc23)cc(OC)c1OC : what is it? 71.7

Requested read-out: growth. Entry: C=C1CC2(OC1=O)C(=O)N(CCCN1C(=O)C3(CC(=C)C(=O)O3)c3ccccc31)c1ccccc12 (stereo not given) 19.1

====

test system: ACHN renal; test: NCI-60 one-dose screen, 48 h (100 = growth as untreated, 0 = no growth, -100 = all killed); details: 10 µM unless noted
About 83,000 compounds went through this panel and 20% of them were active in at least one assay; those are over-represented in the sample as a whole.
Binary label based on growth with cut-off 90%: below gives satisfied, not below gives not satisfied.

Find out if reported growth for Cc1ccc(CSC(=N)N)cc1C is less than 90% not satisfied

Hi there! Is growth for O=S(=O)(c1ccc(OCCO)cc1)c1ccc(OCCO)cc1 below 90%, do you know? not satisfied

Please state whether growth is below 90% for O=C1/C(=C/c2ccccc2)Oc2ccc(O)c(I)c21 not satisfied

Hi there! Is growth for CCOC(=O)c1c(/N=C2\SC(=O)/C(=C\C(=O)OC)N2NC)sc2c1CCN(C(=O)OCC)C2 below 90%, do you know? not satisfied

Determine whether this molecule shows growth lower than 90% (ties excluded): CCN1CCN(CC(=O)N2c3cccc4cccc(c34)N(C(=O)CN3CCN(CC)CC3)C2c2cn(-c3ccccc3)nc2-c2cccc([N+](=O)[O-])c2)CC1 satisfied

Report whether reported growth is lower than 90% (strictly) for COc1ccc(C2=C(c3cc(OC)c(OC)c(OC)c3)C(=O)CC2)cc1 satisfied

Report whether reported growth is lower than 90% (strictly) for O=S(=O)(NCCCNc1nccc(-n2ccc3cccnc32)n1)c1cccc(C(F)(F)F)c1 not satisfied

Field: below-cutoff. Rule: recorded growth strictly less than 90%. Subject: C=C1CCC2C(C)(CO)C(O)CCC2(C)C1C/C=C1/C(=O)OCC1O/C=C/c1ccccc1 (stereo not drawn) satisfied

Consider C=C1C(=O)O[C@@H]2[C@@H]3O[C@@](C)(CC/C=C(\C)CCC[C@@H]2C)[C@H](O)C[C@@H]13 . Does its growth lie strictly below 90%? satisfied

Field: below-cutoff. Rule: recorded growth strictly less than 90%. Subject: N=C(N)c1ccc(-c2ccc(-c3ccc4ccccc4c3)s2)cc1 not satisfied

Report whether reported growth is lower than 90% (strictly) for Brc1ccc(-c2[nH]ncc2-c2c[nH]c3ccccc23)cc1 not satisfied

hey, is growth for CCOC(=O)NNC(=S)Nc1ccccc1 lower than 90% or not? not satisfied

Criterion: growth strictly below 90%. Is it met by COc1ccc(-c2nc(/C=C3/C(=O)Nc4ccc(F)cc43)c3ccccn23)cc1 ? not satisfied

Below 90% on growth? Entry C=C(C)[C@@H]1C[C@@H]2Cc3cc(Cl)ccc3N1O2 not satisfied

For this molecule, is growth lower than 90%? CCCCCCCCCCCCNC(=O)[C@H]1CSC(c2ccsc2)N1 (stereo partly drawn) satisfied

Quick check: does CC(O)CN1CCCCC1 (stereo not drawn) have growth under 90%? not satisfied

Does the reported growth of O=C(CCl)N(C1CCCCC1)C1CCCCC1 stay below 90%? not satisfied

A record lists S=c1[nH]nc(-c2cc3ccc2CCc2ccc(cc2)CC3)n1C1CC1 . Is its growth below 90%? not satisfied

growth strictly < 90% for this molecule? COc1ccc(C2CC(c3ccc(OC)cc3OC)=NN2c2ccc(S(N)(=O)=O)cc2)cc1 (stereo not drawn) not satisfied

Lab note: confirm whether the reported growth for this molecule is below 90%, equality not counting. molecule: C/C=C(\C)C(C(=O)NC1CCCCC1)N(C(=O)C1CCc2cc(F)ccc2O1)c1ccc(Cl)cc1 (stereo not drawn) not satisfied

In the record for CCO/C=N/C1=C(C#N)C(c2ccc(Cl)cc2)c2c(c3ccccc3n(C)c2=O)O1 (stereo not drawn) , is growth less than 90%? satisfied

Given the entry Cc1ccc(S(=O)(=O)NCCCNc2cc(-c3cn(C(C)(C)C)nc3-c3cccc(O)c3)ccn2)cc1 , would its reported growth be below 90%? satisfied

I wonder whether C=C1CCC2C3(C)COC(c4ccccc4)OC3CCC2(C)C1/C=C/C1=CCOC1=O (stereo not drawn) has growth below 90%. Can you tell? satisfied

growth under 90%? Item: CCCCN(CCCC)C(=N)c1ccnc2ccccc12 not satisfied

For COc1ccc2[nH]c(C(=O)OCc3ccc4c(Cl)cc(Cl)c(O)c4n3)cc2c1 , is the recorded growth below the cut-off of 90%? satisfied

Decide: growth of Cc1nc2ncccc2nc1Nc1ccc(S(=O)(=O)Nc2ccccn2)cc1 strictly below 90%? not satisfied

In plain terms, does COc1ccc(Nc2nn3c(-c4ccccc4)cc(-c4ccccc4)nc3c2C(N)=O)c(OC)c1 come in under 90% for growth? satisfied

Please check: growth for COc1ccc(C(=O)c2cc(OC)c(OC)c(OC)c2OC)cc1O , strictly under 90% or not? satisfied

Lab note: confirm whether the reported growth for this molecule is below 90%, equality not counting. molecule: COc1ccc(Nc2nc(N)nc3c2CCN(Cc2ccc(OC)cc2OC)C3=O)cc1 satisfied

Field: below-cutoff. Rule: recorded growth strictly less than 90%. Subject: O=C(NCCCNc1nccc(-n2ccc3cccnc32)n1)c1c(F)cccc1F not satisfied

Field: below-cutoff. Rule: recorded growth strictly less than 90%. Subject: Nc1nc(Nc2cc(Cl)cc(Cl)c2)nn1S(=O)(=O)c1ccc2ccccc2c1 satisfied

Regarding Cc1ccc(-c2nc(C(Cl)Cl)n3nc(-c4ccccc4)cc3n2)cc1 , kindly confirm whether its growth is beneath 90%. satisfied

Here's an entry: Cc1c(C(=N)C(C#N)C#N)c(=N)oc2c1ccc1ccccc12 . Is its growth below 90%? satisfied

Given the entry O=c1ccn(-c2ncnc3nc[nH]c23)cc1 , would its reported growth be below 90%? not satisfied

Is it true that growth reported for Nc1nc(-c2ccccc2)c(CCCOc2ccc(NC(=O)CBr)cc2)c(=O)[nH]1 is less than 90%? not satisfied

Report whether reported growth is lower than 90% (strictly) for OB(O)c1cccc(-c2nc3ccc4[nH]ncc4c3c3c2CCCC3)c1F satisfied
